These measurements were taken from ChEMBL document CHEMBL4422628.

TESTED ON: Peroxisome proliferator-activated receptor delta (Homo sapiens) (UniProt Q03181)
Sequence (Q03181 whole entry, the tested form may be a part): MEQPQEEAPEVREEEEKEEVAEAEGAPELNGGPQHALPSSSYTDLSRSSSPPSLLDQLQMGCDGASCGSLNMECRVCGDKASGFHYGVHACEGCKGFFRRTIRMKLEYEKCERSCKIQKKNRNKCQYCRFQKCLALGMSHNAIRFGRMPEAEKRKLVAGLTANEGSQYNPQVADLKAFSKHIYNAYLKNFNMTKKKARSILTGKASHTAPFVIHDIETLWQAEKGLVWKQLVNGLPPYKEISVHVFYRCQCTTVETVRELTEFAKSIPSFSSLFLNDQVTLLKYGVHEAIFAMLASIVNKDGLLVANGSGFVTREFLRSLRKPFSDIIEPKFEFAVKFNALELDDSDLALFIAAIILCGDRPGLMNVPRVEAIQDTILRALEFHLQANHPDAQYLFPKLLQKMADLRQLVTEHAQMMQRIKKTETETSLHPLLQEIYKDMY
ASSAY TEXT: Transactivation of GAL4-fused human PPARdelta LBD expressed in HEK293 cells assessed as activity percentage at 10 uM after 18 hrs by luciferase reporter gene assay relative to control
Assay type: cell-based
VALUE KIND: Activity (%)
Entry rule: numbers only, all in %.

STRUCTURE SMILES	Activity / %
O=C(O)COc1ccc(OCc2nnc(-c3ccccc3)o2)cc1F	3

Supply recorded Activity for O=C(O)COc1ccc(OCc2nnc(-c3ccccc3)s2)cc1F here.
4

Supply recorded Activity for O=C(O)COc1ccc(OCc2ncc(-c3ccccc3)s2)cc1F here.
23

Supply recorded Activity for Cc1cc(OCc2ncc(-c3ccccc3)o2)ccc1OCC(=O)O here.
12
